# assay.summary: folding stability dG unfold from trypsin proteolysis; higher = more stable
If the reported folding stability dG unfold equals or exceeds 0.6 kcal/mol, assign condition met. If not, assign condition not met.

Reference set, count: 5
SAGTIVFSRDELKELGIPEDMTVEEIKQKILDRLKEEGYEVKITKIEVVEVDEEEGRVLVRITIEVKKPSAG [r5_23_TrROS_Hall]; condition met
SAKTVKVRIELTLTVVKVTLDPETGELKVEEVKTLTLEIELEMSEEDLEKARRALEEELKRLLEELGIPSAG [r14_308_TrROS_Hall]; condition met
SAGGSSMPLEVTEVKKIGDKIVITLRVPPSVGPLSLGLTIELKSKPVTITSTFDPSTTTATIEVGLSAGGSA [r2_261_JUSTAS]; condition met
SAPILPDAVVSEKPSVSQLPGNSTLVTTTYTYPGGPTITKTTTYTVDPSTGKWTTTSSTTLTPEAAAAASAG [r14_842_JUSTAS]; condition not met
SAGGSAGGMKEVIEAALKDGSKEFYAPGFSPDKVYDVKITVYPGEGKVEIEVEGKRFTVSPEDLSAGGSAGG [r6_749_TrMRF]; condition met

Does the reported folding stability dG unfold for SPNMQPVEMEFKIKVPGKPVDIKIEMWRMPDGQTRMDIRYPDGRSIMFNPSNGSIKIYDPKDGKPLAEISSA [r9_970_TrROS] fall at or above the 0.6 kcal/mol mark?
condition met

Does the reported folding stability dG unfold for SAGGSAGGSAGGSMKYITITETTEEEVLVLYYDPETGEPVREEKVLRTVTKTRTLPPDLKSAGGSAGGSAGG [r7_573_JUSTAS] fall at or above the 0.6 kcal/mol mark?
condition not met

Does the reported folding stability dG unfold for SAGGSAKPEKVIVLEIEIEMTPEEVKKLVEELLKEKFGVEIERIEVEVERLPDGTLKVRVRVVIRESAGGSA [r15_138_TrROS_Hall] fall at or above the 0.6 kcal/mol mark?
condition met

These data points were gathered from the supplement of paper PMC12764529.
